Let's go through some IC50 measurements on O-acyltransferase (Oryctolagus cuniculus, UniProt G1SFD9) together.
Sequence (G1SFD9 1-524): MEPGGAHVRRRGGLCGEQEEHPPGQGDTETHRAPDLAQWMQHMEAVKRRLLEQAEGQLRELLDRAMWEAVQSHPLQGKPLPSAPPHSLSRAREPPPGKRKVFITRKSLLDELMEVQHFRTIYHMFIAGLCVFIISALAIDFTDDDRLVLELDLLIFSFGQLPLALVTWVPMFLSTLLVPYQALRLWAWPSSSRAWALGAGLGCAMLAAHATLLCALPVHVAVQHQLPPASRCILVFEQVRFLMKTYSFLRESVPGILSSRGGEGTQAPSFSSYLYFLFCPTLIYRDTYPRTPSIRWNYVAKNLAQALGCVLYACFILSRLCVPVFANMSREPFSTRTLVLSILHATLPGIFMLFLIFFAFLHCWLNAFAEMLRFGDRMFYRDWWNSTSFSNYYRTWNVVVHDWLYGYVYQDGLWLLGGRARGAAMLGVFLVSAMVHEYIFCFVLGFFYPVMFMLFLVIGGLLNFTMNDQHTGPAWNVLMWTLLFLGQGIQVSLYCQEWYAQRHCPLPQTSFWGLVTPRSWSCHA
Measured Property: IC50 (nM)

CCCCCCCCCCc1ccc(NC(=O)Nc2c(C(C)C)cccc2C(C)C)cc1 ... 13
CC(C)c1cccc(C(C)C)c1NC(=O)Nc1ccc(C(C)(C)C)cc1 ... 168

(I) CCCCCCCCCc1ccc(NC(=O)Nc2c(C(C)C)cccc2C(C)C)cc1
(II) CCCCc1ccc(NC(=O)Nc2c(C(C)C)cccc2C(C)C)cc1
Prompt line: Pick the one with the larger IC50: I vs II Let me know the label of the one you choose.
Response line: II
(II: 29 nM, I: 9 nM)
